Here, each record is paired with measured IC50 data.
biological target: Histone deacetylase 7 (Homo sapiens, UniProt Q8WUI4); assay: Inhibition of HDAC7 in human HeLa cells nuclear extract using BocLys(acetyl)-AMC as substrate incubated for 1 hr by fluorescence plate reader analysis
Sequence (Q8WUI4 whole entry): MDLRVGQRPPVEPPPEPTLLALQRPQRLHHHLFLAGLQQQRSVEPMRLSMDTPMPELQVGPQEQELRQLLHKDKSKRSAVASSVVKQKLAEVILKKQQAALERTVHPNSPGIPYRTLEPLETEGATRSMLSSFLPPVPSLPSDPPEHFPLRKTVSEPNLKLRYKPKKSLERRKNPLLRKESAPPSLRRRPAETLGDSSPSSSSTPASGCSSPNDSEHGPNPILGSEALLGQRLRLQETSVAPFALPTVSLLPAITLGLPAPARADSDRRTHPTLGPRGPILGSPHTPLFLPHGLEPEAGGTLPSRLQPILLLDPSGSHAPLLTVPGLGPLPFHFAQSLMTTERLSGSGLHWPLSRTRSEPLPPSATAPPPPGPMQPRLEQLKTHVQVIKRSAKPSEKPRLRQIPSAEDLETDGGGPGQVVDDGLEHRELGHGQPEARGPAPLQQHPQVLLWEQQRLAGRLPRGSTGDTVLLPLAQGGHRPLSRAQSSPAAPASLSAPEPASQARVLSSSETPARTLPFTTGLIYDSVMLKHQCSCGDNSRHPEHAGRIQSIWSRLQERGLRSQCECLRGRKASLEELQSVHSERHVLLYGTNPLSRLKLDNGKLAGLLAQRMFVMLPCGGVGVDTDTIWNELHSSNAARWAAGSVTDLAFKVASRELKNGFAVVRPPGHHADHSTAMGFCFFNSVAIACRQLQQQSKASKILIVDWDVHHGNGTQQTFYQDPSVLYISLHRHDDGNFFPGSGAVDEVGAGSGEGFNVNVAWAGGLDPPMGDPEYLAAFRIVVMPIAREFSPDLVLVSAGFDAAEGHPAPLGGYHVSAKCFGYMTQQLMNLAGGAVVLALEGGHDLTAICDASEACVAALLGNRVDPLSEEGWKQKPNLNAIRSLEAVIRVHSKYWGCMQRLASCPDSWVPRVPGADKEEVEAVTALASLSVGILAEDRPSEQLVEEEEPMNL

Solved cases (2 shown):
{"columns": ["compound", "IC50"],
 "data": [
  ["Nc1cc(F)ccc1NC(=O)c1ccc(CNc2cccc3c2C(=O)N(C2CCC(=O)NC2=O)C3=O)cc1 (stereo not drawn)", "> 2 µM"],
  ["Nc1ccc(F)cc1NC(=O)c1ccc(CNC(=O)/C=C/c2cccnc2)cc1", "> 2 µM"]
]}

// next entry
Returns the measured IC50 for the input compound. Input: Nc1ccccc1NC(=O)c1ccc(CNc2cccc3c2C(=O)N(C2CCC(=O)NC2=O)C3=O)cc1 (stereo not drawn)
> 2 µM

---

target: Histone deacetylase 2 (Homo sapiens, UniProt Q92769); assay: Inhibition of HDAC2 in human HeLa cells nuclear extract using BocLys(acetyl)-AMC as substrate incubated for 1 hr by fluorescence plate reader analysis
Sequence (Q92769 whole entry): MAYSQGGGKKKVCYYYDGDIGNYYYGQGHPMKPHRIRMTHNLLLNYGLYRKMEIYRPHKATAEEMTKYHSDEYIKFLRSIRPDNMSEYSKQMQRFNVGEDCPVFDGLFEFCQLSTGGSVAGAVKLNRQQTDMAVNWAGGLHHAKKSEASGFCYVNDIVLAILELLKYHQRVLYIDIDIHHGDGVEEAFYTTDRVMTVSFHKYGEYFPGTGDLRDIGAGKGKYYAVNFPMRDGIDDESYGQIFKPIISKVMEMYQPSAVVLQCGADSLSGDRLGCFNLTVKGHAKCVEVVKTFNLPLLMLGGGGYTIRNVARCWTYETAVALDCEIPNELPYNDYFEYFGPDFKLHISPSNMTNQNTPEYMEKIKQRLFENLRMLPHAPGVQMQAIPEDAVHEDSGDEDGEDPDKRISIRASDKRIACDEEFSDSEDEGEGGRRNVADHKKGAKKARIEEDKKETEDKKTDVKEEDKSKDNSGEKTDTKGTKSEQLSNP
pIC50: −log10 of the molar value.
readout: pIC50

{"columns": ["molecule", "targetEntity", "assayValue"],
 "data": [
  ["Nc1ccccc1NC(=O)c1ccc(CNc2cccc3c2C(=O)N(C2CCC(=O)NC2=O)C3=O)cc1 (stereo not drawn)", "Histone deacetylase 2 (Homo sapiens, UniProt Q92769)", 6.42],
  ["Nc1cc(F)ccc1NC(=O)c1ccc(CNc2cccc3c2C(=O)N(C2CCC(=O)NC2=O)C3=O)cc1 (stereo not drawn)", "Histone deacetylase 2 (Homo sapiens, UniProt Q92769)", 6.36],
  ["Nc1ccc(F)cc1NC(=O)c1ccc(CNC(=O)/C=C/c2cccnc2)cc1", "Histone deacetylase 2 (Homo sapiens, UniProt Q92769)", 6.32]
]}

---

molecular target: Histone deacetylase 1 (Homo sapiens)
Sequence (Q13547 whole entry): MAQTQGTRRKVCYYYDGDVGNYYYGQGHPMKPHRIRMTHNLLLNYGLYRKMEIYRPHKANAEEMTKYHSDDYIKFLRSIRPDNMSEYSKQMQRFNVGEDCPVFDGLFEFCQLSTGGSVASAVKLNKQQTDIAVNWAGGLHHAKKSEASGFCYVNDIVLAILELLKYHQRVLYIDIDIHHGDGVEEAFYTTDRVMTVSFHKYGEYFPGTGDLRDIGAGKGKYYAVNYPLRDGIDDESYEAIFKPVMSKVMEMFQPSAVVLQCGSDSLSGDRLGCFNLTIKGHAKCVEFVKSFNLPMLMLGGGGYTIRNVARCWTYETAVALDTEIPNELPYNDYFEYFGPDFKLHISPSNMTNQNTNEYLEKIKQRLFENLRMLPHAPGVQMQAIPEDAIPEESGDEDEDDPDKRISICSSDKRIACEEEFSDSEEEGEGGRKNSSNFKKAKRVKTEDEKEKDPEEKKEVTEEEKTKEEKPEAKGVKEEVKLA
readout: IC50 (nM)
Number only, in nM; omit the unit.

Returns the measured IC50 for the input molecule. Input: Nc1cc(F)ccc1NC(=O)c1ccc(CNc2cccc3c2C(=O)N(C2CCC(=O)NC2=O)C3=O)cc1 (stereo unspecified)
457

---

target: Histone deacetylase 1 (Homo sapiens); assay: Induction of HDAC1 degradation in human RS4-11 cells at 0.5 to 10 uM incubated for 12 hrs by Western blotting analysis; type: cell-based; details: dose 0.5-10 µM
The source made the active and inactive calls. The calls are words filed in the database; no cut-off is given here.
readout: Activity

Solved cases (5 shown):
{"columns": ["compound", "targetEntity", "assayValue"],
 "data": [
  ["Nc1cc(F)ccc1NC(=O)CCCCCNc1cccc2c1C(=O)N(C1CCC(=O)NC1=O)C2=O (centres undefined)", "Histone deacetylase 1 (Homo sapiens)", "inactive"],
  ["O=C(CCCNc1cccc2c1C(=O)N(C1CCC(=O)NC1=O)C2=O)NO (centres undefined)", "Histone deacetylase 1 (Homo sapiens)", "inactive"],
  ["Nc1cc(F)ccc1NC(=O)CCCNc1cccc2c1C(=O)N(C1CCC(=O)NC1=O)C2=O (centres undefined)", "Histone deacetylase 1 (Homo sapiens)", "inactive"],
  ["Nc1cccc2c1C(=O)N(C1CCC(=O)NC1=O)C2=O (centres undefined)", "Histone deacetylase 1 (Homo sapiens)", "inactive"],
  ["CCNNC(=O)CCCCCCNc1cccc2c1C(=O)N(C1CCC(=O)NC1=O)C2=O (centres undefined)", "Histone deacetylase 1 (Homo sapiens)", "inactive"]
]}

Returns the measured Activity for the input compound. Input: O=C1CCC(N2C(=O)c3cccc(NCc4ccc(C(=O)NCCS)cc4)c3C2=O)C(=O)N1 (centres undefined)
inactive

Thanks! And Nc1cc(F)ccc1NC(=O)c1cn(CCOCCOCCOCCNc2cccc3c2C(=O)N(C2CCC(=O)NC2=O)C3=O)nn1 (centres undefined) ?
inactive

Thanks! And O=C(CCCNc1cccc2c1C(=O)N(C1CCC(=O)NC1=O)C2=O)NCCS (centres undefined) ?
inactive

Thanks! And O=C(CCCCCCCNc1cccc2c1C(=O)N(C1CCC(=O)NC1=O)C2=O)NO (centres undefined) ?
inactive

Thanks! And Nc1ccccc1NC(=O)c1cn(CCOCCOCCNc2cccc3c2C(=O)N(C2CCC(=O)NC2=O)C3=O)nn1 (centres undefined) ?
inactive

Thanks! And Nc1ccccc1NC(=O)CCCCCNc1cccc2c1C(=O)N(C1CCC(=O)NC1=O)C2=O (centres undefined) ?
inactive

src = ChEMBL document CHEMBL5532657
